Test system: 786-0 renal
Assay: NCI tumour cell line growth inhibition, 48 h
readoutType: TGI

- compound: "COC(=O)c1s/c(=N\\C(=S)N(C)C)n(-c2ccc(Cl)cc2)c1C(=O)OC"
  TGI: "> 100 µM"
- compound: "CC1(C)OC2C(O)C(CO)OC2(C(F)F)O1 (stereo not drawn)"
  TGI: "> 100 µM"

Please look at the following compound next.
Ask: Quick check: TGI of CC1OC(OC2C(OC(=O)[C@]34CCC(C)(C)C[C@H]3C3=CC[C@@H]5[C@@]6(C)CC[C@H](OC7OC(CO)C(O)C(O)C7OC7OC(CO)C(O)C(O)C7O)C(C)(C)[C@@H]6CC[C@@]5(C)[C@]3(C)CC4)OCC(O)C2O)C(O)C(OC2OCC(O)C(O)C2O)C1OC1OCC(O)C(OC2OCC(O)C(O)C2O)C1O (stereo partly drawn) ?
Result: 62.6 µM

----------
System: IGROV1 ovarian
Assay: NCI tumour cell line growth inhibition, 48 h; in the data active = GI50 below about 0.43 µM; inactive = the rest
Lab note: assign the record to one of label 1 (active), label 0 (inactive)

- compound: "COC(=O)c1ccc2c(c1)/C(=C\\c1cc(Br)c(O)c(Br)c1)C(=O)N2"
  answerLabel: "label 0"
- compound: "CN(C)c1ccc(N=Nc2ccccn2)c(O)c1"
  answerLabel: "label 1"
- compound: "O=C1c2cccc3cccc(c23)C(=O)N1CCCCCN1CCN(CCCCCOc2ccc(-c3nc4ccc(N5CCOCC5)cc4[nH]3)cc2)CC1"
  answerLabel: "label 0"
- compound: "CS(=O)(=O)Nc1cc(-c2ccc3ncnc(Nc4c(Cl)ccc5c4OCO5)c3c2)cnc1Cl"
  answerLabel: "label 1"
- compound: "CCN(Cc1ccc(F)cc1)c1ccc(CO)c(Br)c1"
  answerLabel: "label 1"

Ask: Called result for CSc1nc(NC2OC(COC(C)=O)C(OC(C)=O)C(OC(C)=O)C2OC(C)=O)c(N=CC=Nc2c(NC3OC(COC(C)=O)C(OC(C)=O)C(OC(C)=O)C3OC(C)=O)nc(SC)n(C)c2=O)c(=O)n1C (stereo unspecified)
Result: label 0

Ask: Called result for "C[C@H](Nc1cc(Cl)nc2c1cnn2[C@@H]1O[C@H](COP(=O)(O)CP(=O)(O)O)[C@@H](O)[C@H]1O)c1ccccc1F"
Result: label 0

Ask: Called result for COc1cccc2c1C(=O)c1c(O)c3c(c(O)c1C2=O)C[C@@](O)(/C(C)=N/NC(=O)c1ccc(Cl)cc1)C[C@@H]3OC1CC(N)C(O)C(C)O1 (stereo partly specified)
Result: label 1

Ask: Called result for "C#Cc1nc(Nc2cc(C)[nH]n2)c2ccccc2n1"
Result: label 1

Ask: Called result for COc1ccc(C2=C(c3ccc(OC)cc3)C(=O)N3CCCC3C2)cc1 (stereo unspecified)
Result: label 0

Ask: Called result for "COC(=O)C1=CN(CC2=CC(=O)C(C)=CC2=O)C=C(C(=O)OC)C1c1cccc(OC)c1"
Result: label 0

Ask: Called result for C[C@@]12CCC[C@@](C)(C(=O)O)C1CC[C@]13CC(=O)[C@](CO)(C1)[C@@H](O)CC32 (stereo partly specified)
Result: label 0

Ask: Called result for "CN(C)CCC(=O)C(=Cc1ccc(O)cc1)C(=O)CCN(C)C"
Result: label 0

Ask: Called result for "NCCCn1c2c(c3ccc([N+](=O)[O-])cc3c1=O)C(=O)c1ccccc1-2"
Result: label 1

Ask: Called result for COc1ccc(C(O)(CCC(C)C)C(CN2CCOCC2)c2ccc(Cl)cc2)cc1 (stereo unspecified)
Result: label 0

Ask: Called result for "COc1ccc(/C(=C\C=C(C#N)C#N)Sc2nc3ccccc3s2)cc1"
Result: label 0

----------
Tested on: SNB-75 CNS
Experiment: NCI tumour cell line growth inhibition, 48 h; in the data active means GI50 below about 0.43 µM; inactive means the rest
Where a SMILES comes first, the peptide text is derived from it. The star is where a group is joined. Boc = CC(C)(C)OC(=O)*
Lab note: assign the record to one of active, inactive

Ask: Called result for "C[C@H](Nc1cc(Cl)nc2c1cnn2[C@@H]1O[C@H](COP(=O)(O)CP(=O)(O)O)[C@@H](O)[C@H]1O)c1ccccc1F"
Result: inactive

Ask: Called result for COC(=O)C(C)NC(=O)C(CCSC)NC(=O)C(Cc1ccccc1)NC(=O)OC(C)(C)C (stereo not drawn) (Boc-Phe-Met-Ala-OMe; configuration not given here)
Result: inactive

Ask: Called result for "C=CCc1ccc(O)c(-c2ccc(O)c(CC=C)c2)c1"
Result: inactive

Ask: Called result for "C#Cc1nc(Nc2cc(C)[nH]n2)c2ccccc2n1"
Result: active

Ask: Called result for "COc1ccc2c(c1)c[n+](C)c1c3cc(OC)c(OC)cc3ccc21"
Result: inactive

Ask: Called result for "O=C1CCC/C=C\C[C@H]2C=CC(=O)/C2=C/C[C@H](C/C=C\CC(F)(F)F)O1"
Result: inactive

----------
Tested on: SF-539 CNS
Test: NCI tumour cell line growth inhibition, 48 h
Where a SMILES comes first, the peptide text is derived from it. The star is where a group is joined. Cbz = O=C(OCc1ccccc1)*
readoutType: TGI

// known answers, use as guide
- compound: "CC(C)C(C/C=C1\\CC(CO)(COC(=O)C(C)(C)C)OC1=O)C(C)C (stereo not drawn)"
  TGI: "20.9 µM"
- compound: "CC(=O)OCC1OC(n2c(C)cc(C)c(C#N)c2=S)C(OC(C)=O)C(OC(C)=O)C1OC(C)=O (stereo not drawn)"
  TGI: "> 100 µM"
- compound: "O=c1nc(N2CCNCC2)oc2cc(Cl)oc(=O)c12"
  TGI: "11.8 µM"
- compound: "CC(NC(=O)C(NC(=O)OCc1ccccc1)C(C)C)C(=O)NCC(=O)O (stereo not drawn) (Cbz-Val-Ala-Gly-OH; configuration not given here)"
  TGI: "> 100 µM"
- compound: "CCC(=O)O[C@H]1CC[C@H]2[C@@H]3CCC4=C/C(=N/OC(=O)c5cccc6cc7ccccc7nc56)CC[C@]4(C)[C@H]3CC[C@]12C"
  TGI: "> 100 µM"

Ask: Quick check: TGI of "COc1ccc(/C(Cl)=C(\C=O)c2ccc(OC)cc2)cc1" ?
Result: > 100 µM

Ask: Quick check: TGI of "CCOC(=O)c1ccc(N=Nc2cc(C(=O)OCC)ccc2O)cc1" ?
Result: > 100 µM

Ask: Quick check: TGI of "C[Si](C)(C)/C(Br)=C\CCN1C(=O)CCC1=O" ?
Result: > 100 µM

----------
Tested on: HOP-62 NSCLC
Experiment: NCI tumour cell line growth inhibition, 48 h; in the data active = GI50 below about 0.43 µM; inactive = the rest
Lab note: assign the record to one of YES = active, NO = inactive

- molecule: "O=C(Nc1cc(C(F)(F)F)ccc1Cl)c1cccc(NC2=C(Cl)C(=O)N(Cc3ccccc3)C2=O)c1"
  answerLabel: "NO"
- molecule: "COc1cccc2c1C(=O)c1c(O)c3c(c(O)c1C2=O)C[C@@](O)(/C(C)=N/NC(=O)c1ccc(Cl)cc1)C[C@@H]3OC1CC(N)C(O)C(C)O1 (some centres undefined)"
  answerLabel: "YES"
- molecule: "COc1cc(/C=C\\c2cc(OC)c(OC)c(OC)c2)cc(N/C=C\\C(=O)c2cc(OC)c(OC)c(OC)c2)c1OC"
  answerLabel: "NO"

Now examine the next entry.
Ask: Called result for "COc1ccc(Cn2c(N)c(S(=O)(=O)c3ccc(Cl)cc3)c3nc(C#N)c(C#N)nc32)cc1"
Result: NO

----------
System: DU-145 prostate
Experiment: NCI tumour cell line growth inhibition, 48 h; in the data active means GI50 below about 0.43 µM; inactive means the rest
Lab note: assign the record to one of Y for active, N for inactive

See these solved cases before continuing.
- compound: "O=[P@@]1(c2ccccc2)O[C@H](COCc2ccccc2)[C@@H](OCc2ccccc2)[C@H](OCc2ccccc2)[C@H]1NCc1ccccc1"
  assayTarget: "DU-145 prostate"
  answerLabel: "N"
- compound: "O=[N+]([O-])c1cccc2ccc(N/N=C/c3ccccc3O)nc12"
  assayTarget: "DU-145 prostate"
  answerLabel: "N"
- compound: "CN(C)C(=S)Sc1ccc([N+](=O)[O-])cc1[N+](=O)[O-]"
  assayTarget: "DU-145 prostate"
  answerLabel: "N"

Ask: Called result for "Oc1ccc(Nc2c3ccccc3nc3occ(Cl)c23)cc1"
Result: N

Ask: Called result for "COc1cc(/C=C/C(=O)c2cccc(-n3cc(-c4ccc(Cl)cc4)[nH]c3=O)c2)ccc1O"
Result: N

Ask: Called result for "C=CCc1ccc(O)c(-c2ccc(O)c(CC=C)c2)c1"
Result: N

----------
Tested on: NCI-H522 lung
Test: NCI tumour cell line growth inhibition, 48 h
Attribute: TGI

// known answers, use as guide
- molecule: "C=CCN1CCC(O)(c2cc(C(=O)OCC)[nH]c2-c2cc(C)no2)C1 (stereo not given)"
  TGI: "> 100 µM"
- molecule: "CN(C)C(=S)Sc1ccc([N+](=O)[O-])cc1[N+](=O)[O-]"
  TGI: "1.6 µM"
- molecule: "COc1cccc(C2c3cc4c(cc3OC(C)(N3CCCC3)C2C)OCO4)c1 (stereo not given)"
  TGI: "5.7 µM"
- molecule: "CC1(C)N=C(N)N=C(N)N1c1ccc(CCCCc2ccc(Cl)c(S(=O)(=O)F)c2)c(Cl)c1"
  TGI: "13.3 µM"

Please look at the following molecule next.
Ask: Quick check: TGI of "COC(=O)c1ccc(-c2c(C#N)[n+](=O)c3cc(Cl)c(Cl)cc3n2[O-])cc1" ?
Result: > 100 µM

Data origin, for the record: PubChem BioAssay (NCI)
